# credit: paper PMC9330529

Metric Name: pKd
Convention used: pKd is expressed as -log10 of the molar concentration.

Problem: Under SARS-CoV-2 spike protein WT (SARS-CoV-2 (WT)): pKd value of CGCAGCACCCAAGAACAAGGACTGCTTAGGATTGCGATAGGTTCGGAAAAAAGGCGGGTTCCTAGACTTGTACTCAGCCT [S1B6C3-A5-S2A2C1] ?
Solution: 7.45

---

- System Under Test: SARS-CoV-2 spike protein WT (SARS-CoV-2 (WT)) (UniProt P0DTC2)
Metric Name: Kd
State the result as a value with its unit after it.

Problem: Which Kd reading was recorded for the sequence CGCAGCACCCAAGAACAAGGACTGCTTAGGATTGCGATAGGTTCGGAAAAAAGGCGGGTTCCTAGACTTGTACTCAGCCT [S1B6C3-A5-S2A2C1] ?
Solution: 34.6 nM
